Data origin, for the record: patent US9663528B2

In this section, each of the molecules is paired with its reported Cmax.
- protocol description: Pharmacokinetic analysis following oral administration to beagle dogs
- Type: in vivo
- test conditions: male, beagle, dog, in vivo, po, 1 mg/kg
- Method: Pharmacokinetic analysis was performed on various test compounds following intravenous or oral administration to beagle dogs. […] For pharmacokinetic analysis of orally administered compounds, serial venous blood samples (approximately 0.3 mL each) were taken from each animal at time points of 0, 0.25, 0.50, 1.0, 2.0, 4.0, 6.0, 8.0, 12.0 and 24.0 hours after dosing. Blood samples were collected, prepared and analyzed in a similar way to the intravenous studies described above. […]
State just the number; it will be interpreted in nM.

Solved entries (count: 2):
Record summary for O=C(NCc1ccc(F)cc1F)c1cn2c(c(O)c1=O)C(=O)N1[C@@H]3CC[C@@H](C3)O[C@H]1C2 [Compound 3] : reported Cmax = 1200

Value of measured Cmax for the entry O=C(NCc1ccc(F)cc1F)c1cn2c(c(O)c1=O)C(=O)N1[C@H]3CC[C@H](C3)O[C@@H]1C2 [Compound 2] : 7800

Attention now shifts to the item below.
response.value for O=C(NCc1c(F)cc(F)cc1F)c1cn2c(c(O)c1=O)C(=O)N1[C@H]3CC[C@H](C3)[C@@H]1C2 [Compound 41] (field: Cmax) = 2400
